test: Selectivity index, ratio of EC50 for toxicity in human A549 cells to MIC50 for antifungal activity against ITC and FLC-resistant Candida albicans ATCC MYA-90819; format: cell-based; details: read-out: Selectivity Index
# cutoff 8 applies to selectivity ratio; >= gives yes (1), < gives no (0)

Use these answered entries as a reference point.
INSERT INTO results (molecule, qualitative_label) VALUES
  ('CCCCCCCCC(O)(Cn1cncn1)c1ccc(F)cc1F (configuration not stated)', 'no (0)'),
  ('CCCCCCC(O)(Cn1cncn1)c1ccccc1F (configuration not stated)', 'yes (1)'),
  ('CCCCCC(O)(Cn1cncn1)c1ccccc1F (configuration not stated)', 'yes (1)'),
  ('CCCCC(O)(Cn1cncn1)c1ccc(Cl)cc1Cl (configuration not stated)', 'yes (1)'),
  ('CCCCCC(O)(Cn1cncn1)c1ccc(Cl)cc1Cl (configuration not stated)', 'yes (1)');

Dear colleague, could you confirm whether CCCCC(O)(Cn1cncn1)c1ccc(F)cc1F (configuration not stated) has selectivity ratio at or above 8?
no (0)

Numbers sourced from ChEMBL document CHEMBL4265871.
